The values you see were collected from patent US12448423.

Tested Target: T1, HIS-tagged human NKG2D (human, UniProt P26718 73-216, limits assumed)
T1 construct: Captured on HIS1K biosensors; not shown: HIS tag
T1 sequence (looked up): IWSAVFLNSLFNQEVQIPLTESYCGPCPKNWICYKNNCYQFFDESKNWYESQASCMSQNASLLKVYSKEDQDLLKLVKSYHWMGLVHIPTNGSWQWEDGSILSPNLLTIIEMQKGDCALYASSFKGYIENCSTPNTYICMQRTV
Procedure Summary: Octet (BLI): His-tagged human NKG2D captured on HIS1K biosensors, dipped into 100 nM bivalent mAb
Quantity Measured: koff

stdin: I have this binder here, XENP27593 (antibody, human IgG1, kappa, V domains shown, bivalent anti-NKG2D mAb, IgG1 with ablation variants; also called 6H7E7[NKG2D]_H0L0_IgG1_PVA_/S267K) VH: QVQLQESGPGLVAPSQSLSITCTVSGFSLTSYGVHWIRQPPGKGLEWLGVIWAGGSTNYNSALMSRLSISKDNSKSQVFLKMNSLQIDDTAMYYCARGGYEGAAWFGYWGQGTTVTVSS VL: DIQLTQSPAILSASPGEKVTMTCRASSSVSYMHWYQQKPGSSPKPWIYATSNLASGVPARFSGSGSGTSYSLTISRVEAEDAATYYCQQWNSNPLTFGAGTKLEIKR , and I need its recorded koff.
stdout: ≤ 1e-07 s⁻¹

stdin: Next binder: XENP27600 (antibody, human IgG1, kappa, V domains shown, humanized bivalent anti-NKG2D mAb, IgG1 with ablation variants; also called mAb B[NKG2D]_H1L2_IgG1_PVA_/S267K) VH: QVQLVQSGAEVKKPGASVKVSCKASGYTFTSYWMNWVRQAPGQGLEWMGRIDPYDSETHYNQKFQGRVTMTVDKSTSTAYMELSSLRSEDTAVYYCAKMGDYSFDYWGQGTLVTVSS VL: DIQLTQSPDSLAVSLGERATINCKASGNIHNYLAWYQQKPGQSPKVLVYNAKTLADGVPSRFSGSGSGTDYTLTISSLQAEDVAVYYCQHFWSTTWTFGGGTKVEIKR
stdout: 0.000666 s⁻¹

stdin: Next binder: XENP27603 (antibody, human IgG1, kappa, V domains shown, humanized bivalent anti-NKG2D mAb, IgG1 with ablation variants; also called mAb B[NKG2D]_H2L2_IgG1_PVA_/S267K) VH: EVQLVQSGAEVKKPGESLRISCKASGYTFTSYWMNWVRQMPGKGLEWMGRIDPYDSETHYNPSFQGHVTISVDKSISTAYLQWSSLKASDTAMYYCAKMGDYSFDYWGQGTLVTVSS VL: DIQLTQSPDSLAVSLGERATINCKASGNIHNYLAWYQQKPGQSPKVLVYNAKTLADGVPSRFSGSGSGTDYTLTISSLQAEDVAVYYCQHFWSTTWTFGGGTKVEIKR
stdout: 0.00121 s⁻¹

stdin: Next binder: XENP27594 (antibody, V domains shown, bivalent anti-NKG2D mAb, IgG1 with ablation variants; also called mAb E[NKG2D]_H1L1_IgG1_PVA_/S267K) VH: EVQLVESGGGLVKPGGSLRLSCAASGFTFSSYSMNWVRQAPGKGLEWVSSITSSSSYIYYADSVKGRFTISRDNAKNSLYLQMNSLRAEDTAVYYCARDRRYFDWFPLDYRGQGTLVTVSS VL: DIQMTQSPSSLSASVGDRVTITCRASQGISSWLAWYQQKPEKAPKSLIYAASSLQSGVPSRFSGSGSGTDFTLTISSLQPEDFATYYCQQYNGYPYTFGQGTKLEIKR
stdout: 0.000387 s⁻¹

New cases:
stdin: I have this binder here, XENP27591 (antibody, human IgG1, kappa, V domains shown, bivalent anti-NKG2D mAb, IgG1 with ablation variants; also called 11B2D10[NKG2D]_H0L0_IgG1_PVA_/S267K) VH: QVQLQQSGPELVRPGASVKLSCKASGYTFTSYWMNWVQQRPEQGLEWIGRIDPYDSETHYNQKFKDKAILTVDKSASTAYMQLSSLTSEDSAVYYCAKMGDYSFDYWGQGTTVTVSS VL: DIQLTQSPASLSASVGETVTITCRASGNIHNYLAWYQQKQGKSPQVLVYNAKTLADGVPSRFSGSGSGTQYSLKINSLQPEDFGSYYCQHFWSTTWTFGGGTKLEIKR , and I need its recorded koff.
stdout: 0.000792 s⁻¹
